System: Musca domestica Snaidm
Assay: Topical LD50 to adult female SNAIDM houseflies
Details: synergistic ratio: LD50 alone/LD50 synergized with piperonyl butoxide
Doc: threshold 7 (exclusive). Items with SR, Musca domestica Snaidm beneath it return Satisfied; others return Not satisfied.

Molecule	System under test	Class label
CCCCOc1ccc(C(Nc2ccc(OC)cc2)C(Cl)(Cl)Cl)cc1 (stereo not shown)	Musca domestica Snaidm	Not satisfied
CCOc1ccc(NC(c2ccccc2)C(Cl)(Cl)Cl)cc1 (stereo not shown)	Musca domestica Snaidm	Not satisfied
COc1ccc(NC(c2ccc(C)cc2)C(Cl)(Cl)Cl)cc1 (stereo not shown)	Musca domestica Snaidm	Satisfied
COc1ccc(C(Nc2ccc(C)c(C)c2)C(Cl)(Cl)Cl)cc1 (stereo not shown)	Musca domestica Snaidm	Not satisfied
Cc1ccc(NC(c2ccc(C)cc2)C(Cl)(Cl)Cl)cc1 (stereo not shown)	Musca domestica Snaidm	Not satisfied
COc1ccc(C(Nc2ccc(C3CCCCC3)cc2)C(Cl)(Cl)Cl)cc1 (stereo not shown)	Musca domestica Snaidm	Not satisfied
CCOc1ccc(NC(c2ccc(C)cc2)C(Cl)(Cl)Cl)cc1 (stereo not shown)	Musca domestica Snaidm	Satisfied
